Assay: Phase 1b MAD plasma pharmacokinetics, non-compartmental analysis
Assay type: in vivo, human
Conditions: human, plasma, po, 90 mg, Cohort C healthy, 90 mg QD oral, Day 7; mean ± SD; read-out: Average of Tmax
METRIC: Tmax (h)

CC1(Cc2ccccc2)COc2cc(C(=O)N3CCCCC3)ccc21 (stereo not shown) [NTRX-07]    1.3

---

Assay: Phase 1b MAD plasma pharmacokinetics, non-compartmental analysis
Assay type: in vivo, human
Details: human, plasma, po, 360 mg SDD, Table 35 (interim): Cohort D (AD), 360 mg SDD (90 mg NTRX-07) QD oral, Day 7; individual subjects
METRIC: AUC over 24 h (AUC0-24) (ng·h/mL)

CC1(Cc2ccccc2)COc2cc(C(=O)N3CCCCC3)ccc21 (stereo not shown)    1010

---

Assay: Phase 1b MAD plasma pharmacokinetics, non-compartmental analysis
Assay type: in vivo, human
Details: human, plasma, po, 30 mg, Cohort B Fed, single 30 mg oral dose after high-fat meal; mean ± SD; read-out: Average of AUC24 h
METRIC: AUC(0-t) (ng·h/mL)

CC1(Cc2ccccc2)COc2cc(C(=O)N3CCCCC3)ccc21 (stereo not shown)    390

---

Assay: Phase 1b MAD plasma pharmacokinetics, non-compartmental analysis
Format: in vivo, human
Details: human, plasma, po, 10 mg, Table 10: Cohort A, 10 mg QD oral, Day 7; mean ± S.D.
Protocol: Methods: All study procedures were approved by the IRB, and informed consent was obtained. […] Subjects were assessed for changes in vital signs, including maneuvers to induce lightheadedness, electrocardiograms, 24-hour electroencephalograms (EEG), and safety laboratory studies. […] Raw bioanalytical data were received from Nuvisan following analysis of plasma samples from each of four cohorts. PK parameters were calculated by noncompartmental analysis using standard equations. […]
METRIC: AUC over 24 h (AUC0-24) (ng·h/mL)

CC1(Cc2ccccc2)COc2cc(C(=O)N3CCCCC3)ccc21 (stereo not shown)    90.4

---

Test: Phase 1b MAD plasma pharmacokinetics, non-compartmental analysis
Type: in vivo, human
Conditions: human, plasma, po, 10 mg, Cohort A healthy, 10 mg QD oral, Day 1; mean ± SD; read-out: Average of Vd/F
METRIC: Vd/F (L)

CC1(Cc2ccccc2)COc2cc(C(=O)N3CCCCC3)ccc21 (stereo not shown)    1280

---

Experiment: Phase 1b MAD plasma pharmacokinetics, non-compartmental analysis
Type: in vivo, human
Settings: human, plasma, po, 90 mg, Cohort C healthy, 90 mg QD oral, Day 7; mean ± SD; read-out: Average of AUC24 h
METRIC: AUC(0-t) (ng·h/mL)

CC1(Cc2ccccc2)COc2cc(C(=O)N3CCCCC3)ccc21 (stereo not shown) [NTRX-07]    741

---

Test: Phase 1b MAD plasma pharmacokinetics, non-compartmental analysis
Type: in vivo, human
Details: human, plasma, po, 360 mg SDD, Table 30 (interim): Cohort C, 360 mg SDD (90 mg NTRX-07) QD oral, Day 7; mean ± S.D.
METRIC: AUC over 24 h (AUC0-24) (ng·h/mL)

CC1(Cc2ccccc2)COc2cc(C(=O)N3CCCCC3)ccc21 (stereo not shown)    747

---

Experiment: Phase 1b MAD plasma pharmacokinetics, non-compartmental analysis
Assay type: in vivo, human
Settings: human, plasma, po, 90 mg, Cohort D AD patients, 90 mg QD oral, Day 7; mean ± SD; read-out: Average of Cmax
METRIC: Cmax (ng/mL)

CC1(Cc2ccccc2)COc2cc(C(=O)N3CCCCC3)ccc21 (stereo not shown)    240

---

Assay: Phase 1b MAD plasma pharmacokinetics, non-compartmental analysis
Type: in vivo, human
Conditions: human, plasma, po, 30 mg, Table 12: Cohort B, 30 mg QD oral, Day 7; individual subjects; read-out: Tmax
METRIC: Tmax (min)

CC1(Cc2ccccc2)COc2cc(C(=O)N3CCCCC3)ccc21 (stereo not shown)    30

---

Test: Phase 1b MAD plasma pharmacokinetics, non-compartmental analysis
Assay type: in vivo, human
Details: human, plasma, po, 90 mg, Cohort D AD patients, 90 mg QD oral, Day 1; mean ± SD; read-out: Average of Tmax
METRIC: Tmax (h)

CC1(Cc2ccccc2)COc2cc(C(=O)N3CCCCC3)ccc21 (stereo not shown)    1.1

---

Test: Phase 1b MAD plasma pharmacokinetics, non-compartmental analysis
Assay type: in vivo, human
Settings: human, plasma, po, 120 mg, Table 24 (interim): Cohort B, 120 mg SDD (30 mg NTRX-07) QD oral, Day 1; mean ± S.D.; read-out: Tmax
METRIC: Tmax (min)

CC1(Cc2ccccc2)COc2cc(C(=O)N3CCCCC3)ccc21 (stereo not shown)    54

---

Assay: Phase 1b MAD plasma pharmacokinetics, non-compartmental analysis
Type: in vivo, human
Details: human, plasma, po, 10 mg, Cohort A healthy, 10 mg QD oral, Day 7; mean ± SD; read-out: Average of AUC24 h
METRIC: AUC(0-t) (µg·h/mL)

CC1(Cc2ccccc2)COc2cc(C(=O)N3CCCCC3)ccc21 (stereo not shown)    0.0904

---

Experiment: Phase 1b MAD plasma pharmacokinetics, non-compartmental analysis
Type: in vivo, human
Conditions: human, plasma, po, 10 mg, Table 19 (interim): Cohort A, 40 mg SDD (10 mg NTRX-07) QD oral, Day 1; mean ± S.D.; read-out: Cmax
METRIC: Cmax

CC1(Cc2ccccc2)COc2cc(C(=O)N3CCCCC3)ccc21 (stereo not shown)    35.6 ng/mL

---

Test: Phase 1b MAD plasma pharmacokinetics, non-compartmental analysis
Type: in vivo, human
Settings: human, plasma, po, 360 mg SDD, Table 29 (interim): Cohort C, 360 mg SDD (90 mg NTRX-07) QD oral, Day 1; mean ± S.D.; read-out: Cmax
METRIC: Cmax

CC1(Cc2ccccc2)COc2cc(C(=O)N3CCCCC3)ccc21 (stereo not shown) [NTRX-07]    439 ng/mL

---

Assay: Phase 1b MAD plasma pharmacokinetics, non-compartmental analysis
Assay type: in vivo, human
Conditions: human, plasma, oral, 90 mg, high dose (90 mg), Non-AD participants; read-out: Cmax
METRIC: Cmax (ng/mL)

CC1(Cc2ccccc2)COc2cc(C(=O)N3CCCCC3)ccc21 (stereo not shown)    439

---

Test: Phase 1b MAD plasma pharmacokinetics, non-compartmental analysis
Format: in vivo, human
Conditions: human, plasma, po, 10 mg, Table 20 (interim): Cohort A, 40 mg SDD (10 mg NTRX-07) QD oral, Day 7; mean ± S.D.; read-out: Tmax
METRIC: Tmax (min)

CC1(Cc2ccccc2)COc2cc(C(=O)N3CCCCC3)ccc21 (stereo not shown)    48

---

Test: Phase 1b MAD plasma pharmacokinetics, non-compartmental analysis
Assay type: in vivo, human
Conditions: human, plasma, po, 120 mg, Table 24 (interim): Cohort B, 120 mg SDD (30 mg NTRX-07) QD oral, Day 1; mean ± S.D.
METRIC: AUC over 24 h (AUC0-24) (ng·h/mL)

CC1(Cc2ccccc2)COc2cc(C(=O)N3CCCCC3)ccc21 (stereo not shown) [NTRX-07]    323

---

Assay: Phase 1b MAD plasma pharmacokinetics, non-compartmental analysis
Format: in vivo, human
Details: human, plasma, po, 120 mg, Table 24 (interim): Cohort B, 120 mg SDD (30 mg NTRX-07) QD oral, Day 1; mean ± S.D.; read-out: Vd/F
METRIC: Vd/F (L)

CC1(Cc2ccccc2)COc2cc(C(=O)N3CCCCC3)ccc21 (stereo not shown)    1340

---

Assay: Phase 1b MAD plasma pharmacokinetics, non-compartmental analysis
Type: in vivo, human
Details: human, plasma, po, 90 mg, Table 17: Cohort D (AD), 90 mg QD oral, Day 7; individual subjects; read-out: Cmax
METRIC: Cmax (ng/mL)

CC1(Cc2ccccc2)COc2cc(C(=O)N3CCCCC3)ccc21 (stereo not shown) [NTRX-07]    286

---

Assay: Phase 1b MAD plasma pharmacokinetics, non-compartmental analysis
Type: in vivo, human
Conditions: human, plasma, po, 360 mg SDD, Table 34 (interim): Cohort D (AD), 360 mg SDD (90 mg NTRX-07) QD oral, Day 1; mean ± S.D.; read-out: Tmax
METRIC: Tmax (h)

CC1(Cc2ccccc2)COc2cc(C(=O)N3CCCCC3)ccc21 (stereo not shown)    1.1

---

Assay: Phase 1b MAD plasma pharmacokinetics, non-compartmental analysis
Format: in vivo, human
Conditions: human, plasma, po, 30 mg, Cohort B healthy, 30 mg QD oral, Day 7; mean ± SD; read-out: Average of Cmax
METRIC: Cmax

CC1(Cc2ccccc2)COc2cc(C(=O)N3CCCCC3)ccc21 (stereo not shown)    120 ng/mL

---

Assay: Phase 1b MAD plasma pharmacokinetics, non-compartmental analysis
Type: in vivo, human
Details: human, plasma, po, 90 mg, Cohort D AD patients, 90 mg QD oral, Day 7; mean ± SD; read-out: Average of AUC24 h
METRIC: AUC(0-t) (ng·h/mL)

CC1(Cc2ccccc2)COc2cc(C(=O)N3CCCCC3)ccc21 (stereo not shown)    806
